Across several publications, the following IC50 results were reported for UniProt:P49759.

Consider the following illustrative entries.
N#Cc1c[nH]c2nc(Nc3ccc(C(=O)N4CCN(C5CC5)CC4)c4c3OCCO4)nc(NC3CCCC3)c12 : 301 to 1000 nM
CCCNc1cc(Nc2ccc(S(=O)(=O)N3CCC(N4CCOCC4)CC3)cc2OC)nc2[nH]ccc12 : 301 to 1000 nM
Cc1nn(C)c2c1/C=C/c1n[nH]c3ccc(cc13)-c1cnn(C)c1O[C@@H]1CCCN(C2)C1 : 0.27 nM
CC[C@H](C)Nc1nc(Nc2ccc(P3(=O)CCN(C4CC4)CC3)cc2OC)nc2[nH]cc(C#N)c12 : 301 to 1000 nM
C=CCN1CCN(C(=O)c2ccc(Nc3cc(NCC)c4c(C(F)(F)F)c[nH]c4n3)c3c2CCO3)CC1 : < 100 nM
CCNc1nc(Nc2ccc(C(=O)N3CCC(N4CCOCC4)CC3)c3c2OCCO3)nc2[nH]cc(C#N)c12 : < 100 nM

## Input // map O=C(c1ccc(Nc2nc(N[C@H]3CCOC3)c3c(C(F)(F)F)c[nH]c3n2)c2c1OCCO2)N1CCOCC1 to recorded IC50 (system: UniProt:P49759)
## Output < 100 nM

## Input Thanks! And N#Cc1c[nH]c2nc(Nc3ccc(C(=O)N4CCN(C5COC5)CC4)c4c3OCCO4)nc(NC3CCCC3)c12 ?
## Output < 100 nM

* * *

pIC50: −log10 of the molar value.
// cross-source set; read-out = pIC50; system = UniProtKB P49759

In the examples that follow, each entry is paired with its recorded pIC50.
Cc1nn(C)c2c1/C=C/c1n[nH]c3ccc(cc13)-c1cnn(C)c1OCCN1CC[C@@H](O2)C1=O : 9.34
COCCNc1cc(Nc2ccc(C(=O)N3CCOCC3)c3c2OCCO3)nc2[nH]cc(C(F)(F)F)c12 : > 7.00
CC[C@@H](C)Nc1nc(Nc2ccc(C(=O)N3CCOCC3)c3c2OCC3)nc2[nH]cc(C#N)c12 : > 7.00

Now consider the entry below.
## Input Report pIC50 for N#Cc1c[nH]c2nc(Nc3ccc(C(=O)N4CCC(N5CCOCC5)CC4)c4c3OCCO4)cc(NC3CC3)c12 tested on UniProtKB P49759.
## Output 6.52 to 7.00

* * *

Record set: IC50 | Dual specificity protein kinase CLK1 (Homo sapiens, UniProt P49759) | literature, multiple sources.

Recorded IC50, per entry:
CC[C@@H](C)Nc1nc(Nc2ccc(C(=O)N3CCOCC3)c3c2OCCO3)nc2[nH]cc(C(F)(F)F)c12 : 301 to 1000 nM
CCNc1nc(Nc2ccc(C(=O)N3CCC(N4CCOCC4)CC3)c3c2OCC3)nc2[nH]cc(C(F)(F)F)c12 : < 100 nM
O=C(c1ccc(Nc2cc(NC3CC3)c3c(Cl)c[nH]c3n2)c2c1OCCO2)N1CCOCC1 : 301 to 1000 nM
COc1cc(S(=O)(=O)N2CCC(N3CCOCC3)CC2)ccc1Nc1cc(NC2CCC2)c2c(C(F)(F)F)c[nH]c2n1 : 301 to 1000 nM
CNc1cc(Nc2ccc(C(=O)N3CC[C@@H](N4CCOCC4)C3)c3c2OCC3)nc2[nH]cc(C(F)(F)F)c12 : < 100 nM

## Input Look up IC50 for this molecule: CCNc1nc(Nc2ccc(S(C)(=O)=O)cc2OC)nc2[nH]cc(C#N)c12
## Output 301 to 1000 nM

## Input Please do the same for CCOc1nn(C)c2c1/C=C/c1n[nH]c3ccc(cc13)-c1cnn(C)c1OC1CN(C2)C1 as well.
## Output 0.9 nM
